Molecular target: UniProtKB P31652
Sequence (P31652 whole entry): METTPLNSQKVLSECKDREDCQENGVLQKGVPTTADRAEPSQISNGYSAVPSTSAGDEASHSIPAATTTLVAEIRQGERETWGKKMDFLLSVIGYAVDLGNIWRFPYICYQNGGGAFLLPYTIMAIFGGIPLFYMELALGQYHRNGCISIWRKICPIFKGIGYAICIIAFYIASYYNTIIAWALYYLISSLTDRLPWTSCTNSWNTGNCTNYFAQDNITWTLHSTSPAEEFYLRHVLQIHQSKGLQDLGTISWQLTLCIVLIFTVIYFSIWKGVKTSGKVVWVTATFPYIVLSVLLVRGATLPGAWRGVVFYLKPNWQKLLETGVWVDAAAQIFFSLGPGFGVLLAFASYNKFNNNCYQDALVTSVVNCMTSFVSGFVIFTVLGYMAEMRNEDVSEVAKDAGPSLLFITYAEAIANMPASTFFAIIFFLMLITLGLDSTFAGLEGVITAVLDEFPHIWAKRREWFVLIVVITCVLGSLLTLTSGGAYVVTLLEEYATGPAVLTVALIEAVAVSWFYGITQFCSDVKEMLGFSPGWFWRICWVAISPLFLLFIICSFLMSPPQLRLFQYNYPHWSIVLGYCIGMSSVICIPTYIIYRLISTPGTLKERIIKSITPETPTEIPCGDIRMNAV
Experiment: Inhibition of 3H-5-HT uptake in CV-1 cells transfected with the 5-HT transporter cDNA
A collection of compounds and their measured Ki
Property: Ki (nM)

[
  {
    "Compound": "NCCc1ccc(O)c(O)c1 [dopamine]",
    "Property": "Ki",
    "Relation Sign": ">",
    "Quantitative Readout": 10000
  },
  {
    "Compound": "NC[C@H](O)c1ccc(O)c(O)c1 [noradrenaline]",
    "Property": "Ki",
    "Relation Sign": ">",
    "Quantitative Readout": 10000
  },
  {
    "Compound": "CNC(C)Cc1ccc2c(c1)OCO2 (racemic) [± MDMA, 3,4-Methylenedioxy-methamphetamine]",
    "Property": "Ki",
    "Relation Sign": "=",
    "Quantitative Readout": 186
  },
  {
    "Compound": "OC1(c2ccc(Cl)cc2)c2ccccc2C2=NCCN21 (stereo not shown) [mazindol]",
    "Property": "Ki",
    "Relation Sign": "=",
    "Quantitative Readout": 548
  }
]
